- system.name: dopamine D2 receptor (Homo sapiens, UniProt P14416)
- Sequence (P14416 whole entry, species assumed): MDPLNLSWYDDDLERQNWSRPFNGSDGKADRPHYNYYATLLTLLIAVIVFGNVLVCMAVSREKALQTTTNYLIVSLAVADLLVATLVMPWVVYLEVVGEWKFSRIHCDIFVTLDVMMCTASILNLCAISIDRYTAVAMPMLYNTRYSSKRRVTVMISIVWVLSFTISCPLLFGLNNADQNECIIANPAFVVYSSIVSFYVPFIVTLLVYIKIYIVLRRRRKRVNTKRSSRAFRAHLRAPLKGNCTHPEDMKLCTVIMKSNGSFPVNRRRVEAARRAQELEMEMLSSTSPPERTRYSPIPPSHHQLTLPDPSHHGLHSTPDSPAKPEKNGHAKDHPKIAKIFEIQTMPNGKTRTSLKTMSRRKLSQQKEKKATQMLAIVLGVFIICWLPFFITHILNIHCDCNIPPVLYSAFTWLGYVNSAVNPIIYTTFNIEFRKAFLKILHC
- test.name: Binding affinity for dopamine D2 receptor, 3H-raclopride as ligand (Seeman 1993)
experimental.endpoint: Ki (nM)

[P] CC(C)N1CCN(C2=Nc3cc(Cl)ccc3Sc3ccccc32)CC1 [Example 15]
[Q] OCCN1CCN(C2=Nc3cc(C(F)(F)F)ccc3Oc3ccccc32)CC1 [Example 2]
[R] CCCCN1CCN(C2=Nc3cc(C(F)(F)F)ccc3Oc3ccccc32)CC1 [Example 5]
[in] Which order do these items take when sorted by rising Ki? List them. Submit the labels in the order that the ranking request calls for.
[out] P, R, Q

---

- system.name: dopamine D2 receptor (Homo sapiens)
- test.name: Binding affinity for dopamine D2 receptor, 3H-raclopride as ligand (Seeman 1993)
experimental.endpoint: Ki (nM)

CCN1CCN(C2=Nc3cc(Cl)ccc3Oc3ccccc32)CC1 :: 42

[a] OCCN1CCN(C2=Nc3cc(Cl)ccc3Oc3ccccc32)CC1
[b] CC(C)N1CCN(C2=Nc3cc(C(F)(F)F)ccc3Oc3ccccc32)CC1
[c] CCN1CCN(C2=Nc3cc(Cl)ccc3Sc3ccccc32)CC1
[in] Hey, quick one: sort these by Ki, largest value first please. Submit the labels in the order that the ranking request calls for.
[out] b, a, c

---

- system.name: dopamine D2 receptor (Homo sapiens)
- test.name: Binding affinity for dopamine D2 receptor, 3H-raclopride as ligand (Seeman 1993)
experimental.endpoint: Ki (nM)

Known Ki results, listed for orientation:
CCCCN1CCN(C2=Nc3cc(Cl)ccc3Oc3ccccc32)CC1 :: 28
CC(C)N1CCN(C2=Nc3cc(Cl)ccc3Oc3ccccc32)CC1 :: 150
CCCN1CCN(C2=Nc3cc(Cl)ccc3Oc3ccccc32)CC1 :: 23

[P] OCCN1CCN(C2=Nc3cc(Cl)ccc3Sc3ccccc32)CC1
[Q] CCN1CCN(C2=Nc3cc(C(F)(F)F)ccc3Oc3ccccc32)CC1
[in] Which value of Ki is greater, the one for P or the one for Q ? Provide the label of your selected option as the answer.
[out] Q
(Q: 258 nM, P: 88 nM)
